- tested-on: mouse GPR4 (Mus musculus (Mouse), UniProt Q8BUD0)
- Sequence (Q8BUD0 whole entry): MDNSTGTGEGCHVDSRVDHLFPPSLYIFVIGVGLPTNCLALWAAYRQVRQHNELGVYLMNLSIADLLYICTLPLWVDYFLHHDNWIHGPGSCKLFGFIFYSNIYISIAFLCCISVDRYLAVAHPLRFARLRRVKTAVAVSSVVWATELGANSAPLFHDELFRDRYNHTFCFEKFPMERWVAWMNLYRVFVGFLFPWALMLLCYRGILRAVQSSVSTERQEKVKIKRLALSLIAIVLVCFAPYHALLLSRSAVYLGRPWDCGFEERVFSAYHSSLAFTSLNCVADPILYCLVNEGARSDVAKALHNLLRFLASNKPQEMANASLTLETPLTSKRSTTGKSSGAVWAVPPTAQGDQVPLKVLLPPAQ
- assay-explanation: Mouse GPR4 cAMP assay
pIC50: −log10 of the molar value. Where a name gives a salt, the structure may show the parent alone.
readout-type: pIC50

Worked set:
{"compound": "CCc1nn2c(C)cc(C)nc2c1Cc1ccc(-n2cc(CN3CCNCC3)nn2)cc1 [Example 33]", "tested-on": "mouse GPR4 (Mus musculus (Mouse), UniProt Q8BUD0)", "pIC50": 6.06}
{"compound": "CCc1nn2c(C)cc(C)nc2c1Cc1ccc(/C=C/C(=O)N2CCNCC2)cc1 [Example 18, hydrochloride]", "tested-on": "mouse GPR4 (Mus musculus (Mouse), UniProt Q8BUD0)", "pIC50": 5.89}
{"compound": "CCc1nn2c(C)cc(C)nc2c1Cc1ccc(/C=C/CN2CCN(C(=O)[C@H]3NCC[C@H]3O)CC2)cc1 [Example 16, dihydrochloride]", "tested-on": "mouse GPR4 (Mus musculus (Mouse), UniProt Q8BUD0)", "pIC50": 6.70}
{"compound": "CCc1nn2c(C)cc(C)nc2c1Cc1ccc(-n2cc(CN3CCNCC3)cn2)cc1 [Example 31]", "tested-on": "mouse GPR4 (Mus musculus (Mouse), UniProt Q8BUD0)", "pIC50": 6.29}

[A] CCc1nn2c(C)cc(C)nc2c1Cc1ccc(/C=C/CC2(O)CCN(C[C@@H](O)CO)CC2)cc1 [Example 6]
[B] CCc1nn2c(C)cc(C)nc2c1Cc1ccc(/C=C/CN2CCN[C@H](COC)C2)cc1 [Example 10]
Query: Hi there, can you help? I need to know whether A or B has lower measured pIC50. Field: selected label. Fill in the label of the entry you choose.
Response: B
(B: 6.40, A: 6.89)

[I] CCc1nn2c(C)cc(C)nc2c1Cc1ccc(/C=C/CC2(O)CCNCC2)cc1 [Example 3]
[II] CCc1nn2c(C)cc(C)nc2c1Cc1ccc(OC[C@H]2CC[C@@H](N)CC2)cc1 [Example 23]
Query: For this pair, I and II , which shows a numerically higher pIC50? Field: selected label. Fill in the label of the entry you choose.
Response: I

---

- tested-on: human GPR4 (Homo sapiens (Human))
- Sequence (P46093 whole entry): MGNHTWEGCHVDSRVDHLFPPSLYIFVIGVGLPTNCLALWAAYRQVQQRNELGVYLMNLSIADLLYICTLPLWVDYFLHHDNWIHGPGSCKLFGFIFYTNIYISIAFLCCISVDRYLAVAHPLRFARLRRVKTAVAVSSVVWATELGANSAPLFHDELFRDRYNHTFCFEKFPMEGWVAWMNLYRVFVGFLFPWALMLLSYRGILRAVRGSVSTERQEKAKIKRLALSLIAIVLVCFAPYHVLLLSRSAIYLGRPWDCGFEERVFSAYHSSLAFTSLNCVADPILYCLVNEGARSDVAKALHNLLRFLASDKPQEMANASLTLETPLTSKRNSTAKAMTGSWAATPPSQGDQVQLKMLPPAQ
- assay-explanation: Cell-based assay for human GPR4 activity (pH-induced cAMP formation, HTRF, HeLa cells)
- experimental-conditions: HeLa cells stably expressing human GPR4, pH-induced cAMP
Counter-ions that a name gives are not always drawn.
readout-type: IC50 (nM)

Worked set:
{"compound": "CCc1nn2c(C)cc(C)nc2c1Cc1ccc(/C=C/CC2(O)CCN(C[C@@H](O)CO)CC2)cc1", "IC50 (nM)": 19}
{"compound": "CCc1nn2c(C)cc(C)nc2c1Cc1ccc(OC[C@H]2CC[C@@H](N)CC2)cc1", "IC50 (nM)": 21}
{"compound": "CCc1nn2c(C)cc(C)nc2c1Cc1ccc(-n2cc(CN3CC(N)C3)cn2)cc1", "IC50 (nM)": 36}
{"compound": "CCc1nn2c(C)cc(C)nc2c1Cc1ccc(/C=C/CN2CCN[C@H](CO)C2)cc1 [Example 8, dihydrochloride]", "IC50 (nM)": 34}
{"compound": "CCc1nn2c(C)cc(C)nc2c1Cc1ccc(OCC2CCNCC2)cc1 [Example 21, hydrochloride]", "IC50 (nM)": 12}

[a] CCc1nn2c(C)cc(C)nc2c1Cc1ccc(-n2cc(CN3CCN[C@@H](CO)C3)cn2)cc1
[b] CCc1nn2c(C)cc(C)nc2c1Cc1ccc(/C=C/C[C@]2(O)CCN[C@@H](C)C2)cc1
[c] CCc1nn2c(C)cc(C)nc2c1Cc1ccc(-n2cc(CN3CCC(N)CC3)cn2)cc1
Query: Sort the 3 compounds by IC50; largest first, smallest last. A ranking is expressed here by listing the labels in the requested order.
Response: a, c, b
(a: 61 nM, c: 29 nM, b: 17 nM)

[A] CCc1nn2c(C)cc(C)nc2c1Cc1ccc(C(=O)NCC2CCNCC2)cc1
[B] CCc1nn2c(C)cc(C)nc2c1Cc1ccc(OCCC2(O)CCNCC2)cc1
Query: Hi there, can you help? I need to know whether A or B has lower measured IC50. Field: selected label. Fill in the label of the entry you choose.
Response: B

[A] CCc1nn2c(C)cc(C)nc2c1Cc1ccc(-n2cc(CN3CCNCC3)cn2)cc1
[B] CCc1nn2c(C)cc(C)nc2c1Cc1ccc(/C=C/C2(O)CCNCC2)cc1
Query: For this pair, A and B , which shows a numerically higher IC50? Field: selected label. Fill in the label of the entry you choose.
Response: A
